System: zebrafish Estrogen Receptor (ESR2B), gene 317733
Test: ATG_zfER2b_XSP1: Attagene TRANS-FACTORIAL Multi-Species (XSP1) HepG2 Assay for zebrafish Estrogen Receptor (ESR2B) (AID 2283773)
Protocol: ATG_XSP1_multi-species_TRANS is a cell-based, multiplexed assay created by modifying the existing Attagene TRANS-FACTORIAL system to include a panel of nuclear receptors from some or all the following species: human (Homo sapiens), mouse (Mus musculus), frog (Xenopus laevis), zebrafish (Danio rerio), chicken (Gallus gallus), and turtle (Chrysemys picta). The ECOTOX-FACTORIAL format uses HepG2, a human liver cell line, with measurements taken at 24 hours after chemical dosing in a 24-well plate. […]
Records with an inconclusive call do not appear. Calls of active or inactive are those of the source. How the source made its calls: active means hit-call score of the fitted dose curve at least 0.9, where 1 is the maximum; inconclusive means response in the unintended direction; inactive means score below 0.9.
Measured AC50 of individual entries

O=C1C2(Cl)C3(Cl)C4(Cl)C(Cl)(Cl)C5(Cl)C3(Cl)C1(Cl)C5(Cl)C24Cl (stereo unspecified) ... 1.93 µM (active)
CC(C)(C)c1cc(O)ccc1O ... 20 µM (active)
CC(C)(C)CC(C)(C)c1ccc(O)cc1 ... 1.7 µM (active)
C[C@]12CCC(=O)C[C@@H]1CC[C@@H]1[C@@H]2CC[C@]2(C)[C@@H](O)CC[C@@H]12 ... 1 µM (active)
CC12CC1(C)C(=O)N(c1cc(Cl)cc(Cl)c1)C2=O (stereo unspecified) ... 60.6 µM (active)

**Q:** Given the entry COP(=O)(OC)O/C(=C\Cl)c1cc(Cl)c(Cl)cc1Cl , report its measured AC50.
**A:** 73.9 µM (active)

---

read-out: CYP3A5 (gene 1577); assay: LTEA_HepaRG_CYP3A5: Life Technologies and Expression Analysis (LTEA) Assay for CYP3A5 using HepaRG (AID 2283493); conditions: mRNA level, 48 h; actives raise or lower the signal
Calls of active or inactive are those of the source. How the source made its calls: active means hit-call score of the fitted dose curve at least 0.9, where 1 is the maximum; inactive means score below 0.9.
Reply using exactly one outcome from 1 (yes) = active, 0 (no) = inactive

Please review the entries below; each comes with its answer.
Oc1cccc2cccnc12 ... 0 (no)
CCC(C)(C)c1ccc(O)c(C(C)(C)CC)c1 ... 0 (no)
CN(C)N=O ... 0 (no)
O=c1[nH]c(=O)[nH]c(=O)[nH]1 ... 0 (no)

**Q:** How did this test come out for CCC(=O)C(CC(C)N(C)C)(c1ccccc1)c1ccccc1 (stereo not drawn) ?
**A:** 0 (no)

**Q:** How did this test come out for CC(C)(OO)c1ccccc1 ?
**A:** 0 (no)

**Q:** How did this test come out for CCOP(=S)(OCC)SCSP(=S)(OCC)OCC ?
**A:** 1 (yes)

**Q:** How did this test come out for CC12CC1(C)C(=O)N(c1cc(Cl)cc(Cl)c1)C2=O (stereo not drawn) ?
**A:** 0 (no)

**Q:** How did this test come out for C=CC(=O)OCCCCCC(C)C ?
**A:** 0 (no)

**Q:** How did this test come out for COc1cc(-c2ccc(N)c(OC)c2)ccc1N ?
**A:** 0 (no)

**Q:** How did this test come out for CC(C)(c1ccccc1)c1ccc(O)c(C(C)(C)c2ccccc2)c1 ?
**A:** 0 (no)

**Q:** How did this test come out for O=C(O)C(Cl)(Cl)Cl ?
**A:** 0 (no)

**Q:** How did this test come out for O=C(O)C(F)(F)C(F)(F)C(F)(F)C(F)(F)C(F)(F)C(F)(F)C(F)(F)C(F)(F)C(F)(F)C(F)(F)F ?
**A:** 1 (yes)

All values here come from PubChem BioAssay (EPA / NIEHS).
